system: KM12; experiment: NCI tumour cell line growth inhibition, 48 h
The source made the active and inactive calls. Rule as the data show it: active = GI50 up to about 1.1 µM and inactive = higher.
Recorded GI50 values for a group of compounds are listed next.

- compound: "N=c1c2ccccc2nc2oc3ccc(Cl)cc3n12"
  GI50: "> 100 µM (inactive)"
- compound: "COc1ccc(/N=C(\\C)c2ccncc2)cc1"
  GI50: "> 100 µM (inactive)"
- compound: "Cc1cc2cc3c(C)cc(=O)oc3c(C)c2o1"
  GI50: "> 100 µM (inactive)"

Kindly note the recorded GI50 for `CC(=O)NC1=C(N)C(=O)c2ccccc2C1=O` , which is > 100 µM (inactive)

Kindly note the recorded GI50 for COC(=O)[C@@]12OC[C@]34C([C@@H](O)C1O)[C@@]1(C)CC(=O)C(OC(=O)CC(C)C(F)(F)F)=C(C)C1C[C@H]3OC(=O)[C@H](O)[C@H]42 (stereo partly specified) , which is 11.2 µM (inactive)

Kindly note the recorded GI50 for `Cc1ccc(Nc2c(C#N)[n+]([O-])c3cc(Cl)ccc3[n+]2[O-])cc1` , which is 12.6 µM (inactive)

Kindly note the recorded GI50 for CCOC(=O)NC(OCc1ccccc1)(C(=O)OC)C(F)(F)F (stereo unspecified) , which is > 100 µM (inactive)

Kindly note the recorded GI50 for `Nc1cnc(Nc2cccc3ccccc23)o1` , which is > 10 µM (inactive)

Kindly note the recorded GI50 for O=C1CSC(c2c[nH]c3ccccc23)N1c1ccc(Cl)cc1Cl (stereo unspecified) , which is > 100 µM (inactive)

Kindly note the recorded GI50 for `CCOC(=O)C(C(=O)OCC)S(C)(=O)=O` , which is > 100 µM (inactive)

Kindly note the recorded GI50 for `COC(=O)/C=C\C(C#N)(C#N)/N=C/c1cccs1` , which is 17.2 µM (inactive)

====

Recorded GI50 values for a group of compounds are listed next.
system: A498; test: NCI tumour cell line growth inhibition, 48 h
Activity calls are given as the source filed them. No stated cut-off is given here; in the data, active = GI50 up to about 1.1 µM and inactive = higher.

Some compounds with recorded GI50:
- compound: "NC(=O)C(=CNC(=S)Nc1ccc(Cl)c(Cl)c1)C(N)=O"
  GI50: "> 61.4 µM (inactive)"
- compound: "C#CCOC(=O)C(N)CC(N)=O (stereo unspecified)"
  GI50: "> 100 µM (inactive)"
- compound: "CC12CC(Br)(Br)C(=O)C3C1CCCC32"
  GI50: "16.8 µM (inactive)"
- compound: "CNC(SC)=C1C(=O)OC(C)(C)OC1=O"
  GI50: "> 100 µM (inactive)"
- compound: "COc1cc2c([C@@H](OC(=O)c3ccccc3)c3ccc4c(c3)OCO4)nccc2c(OC)c1OC"
  GI50: "32.2 µM (inactive)"

Kindly note the recorded GI50 for ClC(Cl)=C(Cl)C1(Cl)CC1COCc1ccccc1 (stereo unspecified) , which is 52.4 µM (inactive)

Kindly note the recorded GI50 for `O=c1ssc(Cl)c1Cl` , which is > 10 µM (inactive)

Kindly note the recorded GI50 for `COc1ccc(/C(C)=N/NC(=O)c2ccncc2)c(OC)c1` , which is > 10 µM (inactive)

====

test system: BT-549; assay: NCI tumour cell line growth inhibition, 48 h
Activity calls are given as the source filed them. Cut-off read from the data, not from the text of the source: active = GI50 up to about 1.1 µM and inactive = higher.
Answer with one of the outcomes given here: class 1 (active), class 0 (inactive)

- compound: "COCc1nc2c(OC)c(-c3nc4ccc(N5CCN(C)CC5)cc4[nH]3)cc(OC)c2[nH]1"
  labelClass: "class 0"

# input Which result was noted for this compound in the test: CCCCCCCCCCCCCCCC(=O)Nc1ccn(C2OC(CO)C(O)C2O)c(=O)n1 (configuration not stated)
# output class 0

# input Which result was noted for this compound in the test: `c1ccc2cc(CN3CCC(C4CCN(Cc5ccc6ccccc6c5)CC4)CC3)ccc2c1`
# output class 0

# input Which result was noted for this compound in the test: C#CCOC(=O)C(N)CC(N)=O (configuration not stated)
# output class 0

# input Which result was noted for this compound in the test: `CCn1ncc2c(=O)n3ncn(-c4ccc(Br)cc4)c3nc21`
# output class 0

====

Recorded GI50 values for a group of compounds are listed next.
system: OVCAR-5; test: NCI tumour cell line growth inhibition, 48 h
Active and inactive are the calls of the source. Rule as the data show it: active = GI50 up to about 1.1 µM and inactive = higher.

Some compounds with recorded GI50:
- compound: "NC(=O)C(=CNC(=S)Nc1ccc(Cl)c(Cl)c1)C(N)=O"
  endpoint: "GI50"
  endpointResult: "> 100 µM (inactive)"
- compound: "CCN1C[C@]2(C)CC[C@H](OC)C34C1C([C@H](OC(C)=O)[C@@H]32)[C@@]1(OC)C[C@H](OC)[C@H]2C[C@@H]4[C@@H]1[C@H]2O"
  endpoint: "GI50"
  endpointResult: "> 100 µM (inactive)"
- compound: "C[C@@]12[C@H]3CC[C@@H]1[C@H](O)C(=O)N2CC3"
  endpoint: "GI50"
  endpointResult: "> 100 µM (inactive)"
- compound: "N#CCCn1[nH]c(=O)c(Cl)c(Cl)c1=O"
  endpoint: "GI50"
  endpointResult: "18.8 µM (inactive)"
- compound: "Oc1ccc(Cl)cc1Sc1cc(Cl)ccc1O"
  endpoint: "GI50"
  endpointResult: "13.4 µM (inactive)"

Kindly note the recorded GI50 for `CCOC(=O)c1c(N=C(S)Nc2ccccc2)sc2c1CCN(C)C2` , which is > 100 µM (inactive)

Kindly note the recorded GI50 for C=CCC(O)c1cc(OC)ccc1OC (stereo unspecified) , which is > 100 µM (inactive)

Kindly note the recorded GI50 for `CCOC(C/N=c1/nc(N(C)C)ss1)OCC` , which is 19.5 µM (inactive)

Kindly note the recorded GI50 for `Cc1cccc2c1C(=O)[C@](C)([C@]1(C)Nc3cccc(C)c3C1=O)N2` , which is 24.3 µM (inactive)

Kindly note the recorded GI50 for `COc1ccc2nc3cccc([N+](=O)[O-])c3c(NCCC(=O)O)c2c1` , which is > 10 µM (inactive)

Kindly note the recorded GI50 for `O=c1[nH][nH]c(=O)[nH]1` , which is > 100 µM (inactive)

====

tested on: SF-539; assay: NCI tumour cell line growth inhibition, 48 h
Active and inactive are the calls of the source. No stated cut-off is given here; in the data, active = GI50 up to about 1.1 µM and inactive = higher.
Answer with one of the outcomes given here: T for active, F for inactive

Look over these answered cases.
- molecule: "CCc1ccc(Nc2ccc([N+](=O)[O-])cc2[N+](=O)[O-])cc1"
  labelClass: "F"
- molecule: "O=C(O)C1=CNC(C(=O)O)=NN1"
  labelClass: "F"
- molecule: "COC(=O)c1nc(-c2ccc(Cl)c(Cl)c2)nc2ccccc12"
  labelClass: "F"

# input Which result was noted for this molecule in the test: `COc1cc(CNCc2cc(OC)c(OC)c(OC)c2)cc(OC)c1OC`
# output F

# input Which result was noted for this molecule in the test: CCOC1=C2N=C(C(CC)c3ccccc3F)N=C2C(=O)c2ccccc21 (stereo not given)
# output F

# input Which result was noted for this molecule in the test: CC1=CC(=O)C2=C(C)CCC3C(C)C(=O)OC3C12 (stereo not given)
# output F

# input Which result was noted for this molecule in the test: O=C(CC(NC(=O)OCc1ccccc1)C(=O)NC1Cc2ccccc2C1=O)OCc1ccccc1 (stereo not given)
# output F

# input Which result was noted for this molecule in the test: `CCN(CCCl)c1cc(CN(C)C)cc(NC(=O)c2ccc(C(=O)Nc3cccc(N(CCCl)NN)c3)cc2)c1`
# output T

# input Which result was noted for this molecule in the test: `O=C(/C=C1/Nc2ccc([N+](=O)[O-])cc2N/C1=C/C(=O)c1ccc(Cl)cc1)c1ccc(Cl)cc1`
# output F

# input Which result was noted for this molecule in the test: `COc1cc(CNc2nc3cc(C(F)(F)F)ccc3nc2C)cc(OC)c1OC`
# output F

====

system: MCF7; assay: NCI tumour cell line growth inhibition, 48 h
The source made the active and inactive calls. Rule as the data show it: active = GI50 up to about 1.1 µM and inactive = higher.
Recorded GI50 values for a group of molecules are listed next.

- molecule: "CC(=O)OCC1OC(n2c(C)c(C(C)=O)c(-c3cccc4ccccc34)c(C#N)c2=S)C(OC(C)=O)C(OC(C)=O)C1OC(C)=O (stereo not drawn)"
  assayedTarget: "MCF7"
  endpoint: "GI50"
  endpointResult: "> 100 µM (inactive)"

Kindly note the recorded GI50 for `Clc1ccc(Cc2nc3ccccc3o2)cc1` , which is 51.4 µM (inactive)

Kindly note the recorded GI50 for COc1cc(/C=C2\C(=O)N(c3cccc(NC(C)=O)c3)C(c3ccccc3)S2(=O)=O)cc(OC)c1OC (stereo not drawn) , which is 31 µM (inactive)

====

test system: CAKI-1; assay: NCI tumour cell line growth inhibition, 48 h
The source made the active and inactive calls. Rule as the data show it: active = GI50 up to about 1.1 µM and inactive = higher.
endpoint: GI50

- compound: "N#C/C(=C1/Sc2c(nc[nH]c2=O)N1c1ccccc1)c1nc2ccccc2[nH]1"
  endpoint: "GI50"
  endpointResult: "> 100 µM (inactive)"
- compound: "Cc1nc(O)nc(N/N=C/c2c3ccccc3c(Cl)c3ccccc23)c1C(=O)Nc1ccc(Cl)cc1"
  endpoint: "GI50"
  endpointResult: "99.5 µM (inactive)"
- compound: "CC1(C)CC(=O)C(=CNC(=S)c2ccccc2)C(=O)C1"
  endpoint: "GI50"
  endpointResult: "> 100 µM (inactive)"
- compound: "COC(Cc1ccccc1)NC(C)=O (stereo unspecified)"
  endpoint: "GI50"
  endpointResult: "> 100 µM (inactive)"

Kindly note the recorded GI50 for N#CC(c1cc(Cl)ncn1)c1nc2cc(C(F)(F)F)ccc2s1 (stereo unspecified) , which is 8.95 µM (inactive)

Kindly note the recorded GI50 for `COC(=O)/C=C\C(C#N)(C#N)/N=C/c1cccs1` , which is 1.88 µM (inactive)

Kindly note the recorded GI50 for COC(=O)C1=C(C(=O)OC)C(C(=O)OC)C(C(=O)OC)C(C(=O)OC)(C(=O)OC)C(C(=O)OC)=C1C(=O)OC (stereo unspecified) , which is 15.1 µM (inactive)

Kindly note the recorded GI50 for COc1ccc2c(c1OC)C(Br)CCC(Br)(Br)C2=O (stereo unspecified) , which is 1.78 µM (inactive)

Kindly note the recorded GI50 for `COC(=O)C(Cl)=C1CC1` , which is 17.9 µM (inactive)

Kindly note the recorded GI50 for `O=c1ssc(Cl)c1Cl` , which is 5.38 µM (inactive)

Kindly note the recorded GI50 for `Cc1cccc2c1C(=O)[C@](C)([C@]1(C)Nc3cccc(C)c3C1=O)N2` , which is 27.4 µM (inactive)
